Molecular target: human adenosine A2A receptor (Homo sapiens)
Construct: expressed in transfected cells; host or cells: CHO cells, Semliki Forest virus expression system; membrane preparation
Sequence (P29274 whole entry): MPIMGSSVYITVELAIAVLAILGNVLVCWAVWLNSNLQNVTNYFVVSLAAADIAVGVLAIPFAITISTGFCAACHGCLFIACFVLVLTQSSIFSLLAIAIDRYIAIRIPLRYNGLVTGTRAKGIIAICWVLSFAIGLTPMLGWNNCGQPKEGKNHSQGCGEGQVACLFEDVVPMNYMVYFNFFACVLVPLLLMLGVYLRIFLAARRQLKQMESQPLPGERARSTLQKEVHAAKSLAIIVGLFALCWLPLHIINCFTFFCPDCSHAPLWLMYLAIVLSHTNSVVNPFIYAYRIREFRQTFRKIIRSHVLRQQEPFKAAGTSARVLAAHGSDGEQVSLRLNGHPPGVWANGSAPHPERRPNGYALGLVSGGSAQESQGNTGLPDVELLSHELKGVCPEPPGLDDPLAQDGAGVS
Experiment: Human adenosine A2A receptor [3H]-SCH-58261 binding assay
Details: ratio KiHA1 divided by KiHA2A
Protocol: Human Adenosine A2A Receptor The human adenosine A2A receptor was recombinantly expressed in chinese hamster ovary (CHO) cells using the semliki forest virus expression system. […] Assay plates were incubated for 1 hour at room temperature before centrifugation and then bound ligand determined using a Packard Topcount scintillation counter. IC50 values were calculated using a non-linear curve fitting program and Ki values calculated using the Cheng-Prussoff equation.
recorded metric: selectivity (A1/A2a)

Answered examples (5):
**Query** Name the reported selectivity (A1/A2a) value associated with the molecule NC(=O)[C@@H]1CCCN1C(=O)c1cc(N)n2nc(-c3ccc(Br)o3)nc2c1 [Example 389]
**Result** 39.1

**Query** Name the reported selectivity (A1/A2a) value associated with the molecule CCCCN(CCC)C(=O)c1cc(N)n2nc(-c3ccccn3)nc2c1
**Result** 11.7

**Query** Name the reported selectivity (A1/A2a) value associated with the molecule C=CCN(C)C(=O)c1cc(N)n2nc(-c3ccccn3)nc2c1
**Result** 16.5

**Query** Name the reported selectivity (A1/A2a) value associated with the molecule CCN(C)C(=O)c1cc(N)n2nc(-c3ccccn3)nc2c1
**Result** 26.8

**Query** Name the reported selectivity (A1/A2a) value associated with the molecule CCCN(C)C(=O)c1cc(N)n2nc(-c3ccccn3)nc2c1
**Result** 25.4

1: CC1CCCCN1C(=O)c1cc(N)n2nc(-c3ccccn3)nc2c1 (stereo not drawn)
2: CC(C)N(Cc1ccccc1)C(=O)c1cc(N)n2nc(-c3ccccn3)nc2c1
3: NC(=O)C1CCCN(C(=O)c2cc(N)n3nc(-c4ccc(Br)o4)nc3c2)C1 (stereo not drawn)
4: COC[C@H]1CCCN1C(=O)c1cc(N)n2nc(-c3nccs3)nc2c1
**Query** Rank ascending by selectivity (A1/A2a). Please reply with the labels ordered as requested. Many thanks.
**Result** 2, 1, 3, 4
